B1: F1*; the commonest letter at each place (parent)
chain: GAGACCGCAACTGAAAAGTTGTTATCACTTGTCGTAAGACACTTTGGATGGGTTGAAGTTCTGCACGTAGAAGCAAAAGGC

Variants of: B1
Assay: fraction ligated after 30 min (ligated reads / total reads); higher = more ligase activity
Conditions: with F1*sub RNA substrate (template-directed ligation), 42 °C
outcomeMeasure: fraction ligated

Consider the following illustrative entries.
• C28A C42G = 0.81
• T29A T49G = 0.789
• C28T A37G = 0.8
• T35G A41C = 0.808
• T32C = 0.803

Given T23A A57T , state its recorded fraction ligated. 0.813
